experiment: gradient 5% acetonitrile 3 min, to 50% in 2 min, to 85% in 15 min, held 3 min, 100 µL/min; conditions: column: Zorbax Extend-C18 2.1 x 50 mm; eluents: water / acetonitrile, 0.1% formic acid
PROPERTY: RP-LC retention time (s)

compound=CCN1C(=O)COc2cc(-c3noc(C(=O)NC4CCCC4)n3)ccc21 value=936
compound=COc1ccc(CNC(=O)Nc2cccc(-c3ccc(N4CCOCC4)nn3)c2)cc1 value=655
compound=CCS(=O)(=O)c1cccc(-c2cc(C(=O)NC3CCN(C)CC3)c(C)c3[nH]c4ncc(C)cc4c23)c1 value=645
compound=Cc1cn(C)nc1C(=O)Nc1nc2ccc(S(C)(=O)=O)cc2s1 value=699

[I] CCc1ccc(NC(=O)C2CC(=O)N(CCc3c[nH]c4ccc(OC)cc34)C2)cc1 (stereo not drawn)
[II] Cc1nn(-c2nc3ccccc3[nH]2)c2c1C(=O)CC(c1ccc(C(C)C)cc1)C2 (stereo not drawn)
I'm curious whether I or II has the smaller RP-LC retention time number. Which is it? Label of pick, please.
I

[P] CCC(=O)N1c2ccc(S(=O)(=O)N3CCCCC3)cc2CC1C(=O)NC1CC1 (stereo not drawn)
[Q] COc1cccc(-c2nc(C3CC(=O)N(c4ccc(F)c(Cl)c4)C3)no2)c1 (stereo not drawn)
I'm curious whether P or Q has the smaller RP-LC retention time number. Which is it? Label of pick, please.
P

[P] O=C(CSc1nnc2c3sc(N4CCCC4)nc3ncn12)Nc1ccc(F)c(Cl)c1
[Q] O=C(NCCCN1CCCCC1)c1ccc2c(c1)NC(=O)C1CCCCN21 (stereo not drawn)
// compare measured RP-LC retention time, left P , right Q , return larger Label of pick, please.
P

[1] Cc1ccc(CNC(=O)c2ccc3ccnc(N4CCN(c5ccccc5)CC4)c3c2)o1
[2] Cn1cc(CN2CCC(C(=O)NCCN3CCOCC3)CC2)c2cc(Cl)ccc21
[3] Cc1sc(C)c(S(=O)(=O)N2CCCCCC2)c1-c1cc(C(F)(F)F)on1
Ranking field: RP-LC retention time; order: falling. Use the labels to give the ranking in the order requested.
3, 1, 2
(3: 1200 s, 1: 819 s, 2: 568 s)

---

experiment: gradient 5% acetonitrile 3 min, to 50% in 2 min, to 85% in 15 min, held 3 min, 100 µL/min; conditions: column: Zorbax Extend-C18 2.1 x 50 mm; eluents: water / acetonitrile, 0.1% formic acid
PROPERTY: RP-LC retention time (s)

compound=CSc1cccc(NC(=O)c2nnn(Cc3ccc(F)cc3)c2-n2cccc2)c1 value=1150

[I] O=C(NCCCN1CCOCC1)C1CCCN(c2cnc3nccnc3c2)C1 (stereo not given)
[II] O=C(NC1CCCCCCC1)C1CCN(S(=O)(=O)c2cc(C(=O)N3CCOCC3)cs2)CC1
// compare measured RP-LC retention time, left I , right II , return larger Label of pick, please.
II
(II: 838 s, I: 565 s)

---

assay: gradient 5% acetonitrile 3 min, to 50% in 2 min, to 85% in 15 min, held 3 min, 100 µL/min; details: column: Zorbax Extend-C18 2.1 x 50 mm; eluents: water / acetonitrile, 0.1% formic acid
PROPERTY: RP-LC retention time (s)

molecule="CCC1(C(=O)NCc2ccc(C(C)C)cc2)CCCCC(=O)N1 (centres undefined)" property="RP-LC retention time" unit_name=s value=814
molecule="CCc1onc(C)c1C1CCCN1C(=O)Nc1ccc(Cl)cc1 (centres undefined)" property="RP-LC retention time" unit_name=s value=873
molecule=Cc1ccc2c(c1)N(C(=O)Cn1ncn3c(C)c(C(=O)NCc4ccccc4)c(C)c3c1=O)CCO2 property="RP-LC retention time" unit_name=s value=886
molecule=O=C(Cc1noc2ccccc12)NCCOc1ccc2nnc(-c3ccc(F)cc3)n2n1 property="RP-LC retention time" unit_name=s value=679
molecule="CS(=O)(=O)CCC(C(=O)N1CCN(c2ccccn2)CC1)N1Cc2ccccc2C1=O (centres undefined)" property="RP-LC retention time" unit_name=s value=917
molecule=O=C(c1nnn(-c2ccccc2Cl)c1-c1ccncc1)N1CCN(c2ccccn2)CC1 property="RP-LC retention time" unit_name=s value=973
molecule=Cc1cccc(OCc2nc(-c3ccc(-c4csc(C5CC5)n4)cc3)no2)c1 property="RP-LC retention time" unit_name=s value=784
molecule=CCC(=O)N1CCc2cc(C(=O)NC(C)C)ccc21 property="RP-LC retention time" unit_name=s value=685
molecule="Cc1ccc(CNC(=O)N2CCCC(C)(C(=O)NCc3ccc(F)cc3)C2)cc1 (centres undefined)" property="RP-LC retention time" unit_name=s value=890
